- experimental-target: furin, P09958;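 further: purified furin at 1:10 enzyme:substrate in 50 mM HEPES pH 7.5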
- Sequence (P09958 whole entry): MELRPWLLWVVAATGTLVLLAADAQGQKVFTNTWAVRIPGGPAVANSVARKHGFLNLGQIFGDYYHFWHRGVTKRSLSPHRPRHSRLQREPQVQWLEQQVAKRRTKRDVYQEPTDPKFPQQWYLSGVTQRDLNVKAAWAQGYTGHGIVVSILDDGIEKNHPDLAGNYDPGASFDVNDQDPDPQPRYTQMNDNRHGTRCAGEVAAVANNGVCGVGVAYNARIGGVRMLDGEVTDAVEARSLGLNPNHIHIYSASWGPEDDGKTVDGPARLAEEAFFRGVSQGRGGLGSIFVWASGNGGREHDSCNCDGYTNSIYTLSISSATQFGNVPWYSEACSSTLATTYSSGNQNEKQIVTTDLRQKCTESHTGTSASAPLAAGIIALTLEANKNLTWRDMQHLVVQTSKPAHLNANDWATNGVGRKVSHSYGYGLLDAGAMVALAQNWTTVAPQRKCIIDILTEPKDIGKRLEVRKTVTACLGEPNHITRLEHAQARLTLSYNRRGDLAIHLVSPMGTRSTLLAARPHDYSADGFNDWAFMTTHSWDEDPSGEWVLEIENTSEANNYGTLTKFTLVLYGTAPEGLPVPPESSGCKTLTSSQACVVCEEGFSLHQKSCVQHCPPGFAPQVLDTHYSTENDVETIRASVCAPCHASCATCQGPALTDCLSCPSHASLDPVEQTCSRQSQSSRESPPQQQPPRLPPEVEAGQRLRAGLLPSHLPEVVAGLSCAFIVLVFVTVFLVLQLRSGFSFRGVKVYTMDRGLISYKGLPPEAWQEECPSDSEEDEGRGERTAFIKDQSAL
- test-summary: furin cleavage Z-score vs untreated control; higher = more cleavage, active = 3.5 or more, inactive = 1 or less, 8 variable residues between constant flanks
- settings: 7.5 min
Some of the results follow. The true hit rate is not given.
Returns one of Met or Not met; Met when furin cleavage Z-score is >= 3.

Study these solved cases before continuing.
{"query-sequence": "CASDGRGKRHAGNASASA [FS-1277]", "assigned-class": "Met"}
{"query-sequence": "CAKQGVSKRHAGNASASA [FS-261]", "assigned-class": "Not met"}
{"query-sequence": "CALLRRPFRQAGNASASA [FS-1361]", "assigned-class": "Not met"}
{"query-sequence": "CALYRLGAVQAGNASASA [HC973]", "assigned-class": "Not met"}
{"query-sequence": "CAVVCCSMSYAGNASASA [HC94]", "assigned-class": "Not met"}

Query: Can CAMELCSQHLAGNASASA [HC1705] be said to have furin cleavage Z-score at or above 3?
Result: Not met

Query: Can CAKNIRRGRSAGNASASA [FS-342] be said to have furin cleavage Z-score at or above 3?
Result: Met

Reference source for all entries: the supplement of paper PMC3545927
